Origin of values: BindingDB's records for doi:10.3109/14756366.2010.616860

Quick record: IC50, Urokinase-type plasminogen activator (Homo sapiens).
// note: answer is a bare numeric in µM

Worked examples follow.
{"COMPOUND": "CCCCCCCCCCCC(=O)OCC1OC(Oc2cc(O)cc(O)c2C(=O)CCc2ccc(O)cc2)C(O)C(O)C1O (centres undefined) [Phloridzin laurate]", "IC50, µM": 9}
{"COMPOUND": "CCCCCCCCCCCCCC(=O)OCC1OC(Oc2cc(O)cc(O)c2C(=O)CCc2ccc(O)cc2)C(O)C(O)C1O (centres undefined) [Phloridzin myristate]", "IC50, µM": 33}

Ask | Which value of IC50 has been reported for CCCCCCCCCCCCCCCC(=O)OCC1OC(Oc2cc(O)cc(O)c2C(=O)CCc2ccc(O)cc2)C(O)C(O)C1O (centres undefined) [Phloridzin palmitate] in the records?
Reply | 18

Ask | What measured IC50 goes with CCCCCCCCCCCC(=O)OC1C(C)OC(OCC2OC(Oc3c(-c4ccc(O)c(O)c4)oc4cc(O)cc(O)c4c3=O)C(O)C(O)C2O)C(O)C1O (centres undefined) [Rutin laurate] ?
Reply | 50
